The measurements presented in this section are drawn from PubChem BioAssay (NCI).

Measured growth accompanies every entry in the list below.
System: SK-OV-3 ovarian
Assay: NCI-60 one-dose screen, 48 h (100 = growth as untreated, 0 = no growth, -100 = all killed)
Details: 10 µM unless noted
The panel holds about 83,000 compounds, 20% with a hit somewhere; the sample as a whole holds those more often.

>  <compound>
NC1=NN(O)C2=CC([N+](=O)[O-])C=CC2=N1 (stereo unspecified)

>  <unitsOfMeasure>
%

>  <growth>
100

$$$$
>  <compound>
COc1ccc2c(c1)[nH]c(=O)c1c3cc(C)c(C)cc3cn21

>  <unitsOfMeasure>
%

>  <growth>
43.3

$$$$
>  <compound>
NC(N)=Nc1nc2ccccc2o1

>  <unitsOfMeasure>
%

>  <growth>
107

$$$$
>  <compound>
CCOC(=O)C1=C(C)NC(C)=C(C(=O)OCC)C1(C)C

>  <unitsOfMeasure>
%

>  <growth>
110

$$$$
>  <compound>
O=C(Nc1ccc2c(c1)OCO2)C(=O)c1c[nH]c2cc(F)ccc12

>  <unitsOfMeasure>
%

>  <growth>
59.7

$$$$
>  <compound>
COc1ccc(Nc2ncccc2C(=O)NCc2cn(Cc3cccc(Oc4ccccc4)c3)nn2)c(OC)c1

>  <unitsOfMeasure>
%

>  <growth>
21.6

$$$$
>  <compound>
COc1cc(-c2nn(C(=O)NS(=O)(=O)c3ccccc3)cc2-c2ccncc2)ccc1Cl

>  <unitsOfMeasure>
%

>  <growth>
82.1

$$$$
>  <compound>
O=c1c2sc3ncccc3c2nnn1-c1ccccc1

>  <unitsOfMeasure>
%

>  <growth>
105

$$$$
>  <compound>
COc1ccc(OC)c(/C=C2\Oc3cc(OCCCN4CCCC4)ccc3C2=O)c1

>  <unitsOfMeasure>
%

>  <growth>
110

$$$$
>  <compound>
COc1ccc(Nc2nc(N)nc3c2CCN(Cc2ccc(OC)cc2OC)C3=O)cc1

>  <unitsOfMeasure>
%

>  <growth>
90.5

$$$$
>  <compound>
O=C(c1ccccc1)c1c(/C=C/c2ccccc2)c2ccccc2[nH]c1=O

>  <unitsOfMeasure>
%

>  <growth>
102

$$$$
>  <compound>
CC(C)(C)n1cc(-c2ccnc(NCCCNS(=O)(=O)c3ccc(Cl)cc3)c2)c(-c2cccc(O)c2)n1

>  <unitsOfMeasure>
%

>  <growth>
37.4

$$$$
>  <compound>
CCOC(=O)c1cn2c3c(cc(C)cc3c1=O)C(=O)/C(=C/c1ccccc1)C2

>  <unitsOfMeasure>
%

>  <growth>
82.3

$$$$
>  <compound>
c1ccc(-c2cn(-c3ccccc3)c(-c3ccccc3)n2)cc1

>  <unitsOfMeasure>
%

>  <growth>
97.1

$$$$
>  <compound>
C=C[C@@H]1C[C@@H]2Cc3cc(Cl)ccc3N1O2

>  <unitsOfMeasure>
%

>  <growth>
101

$$$$
>  <compound>
Cc1c(C(N)=O)sc2c1c(=O)n(Cc1ccccc1)c1nnc(Nc3ccccc3)n21

>  <unitsOfMeasure>
%

>  <growth>
99.1

$$$$
>  <compound>
Cc1ccc(S(=O)(=O)NCCNc2nccc(-c3c(-c4ccc(O)cc4)nc4sccn34)n2)cc1

>  <unitsOfMeasure>
%

>  <growth>
107

$$$$
>  <compound>
Cc1cc(C2(c3cc(C)c(O)cc3C)OS(=O)(=O)c3ccccc32)c(C)cc1O

>  <unitsOfMeasure>
%

>  <growth>
101

$$$$
>  <compound>
NC(=O)CCCN1C/C(=C\c2ccccc2)C(=O)c2ccccc21

>  <unitsOfMeasure>
%

>  <growth>
89.5

$$$$
>  <compound>
CN(C[C@H]1Cc2c(cccc2N2CCN(Cc3ccccn3)CC2)CN1)[C@H]1CCCc2cccnc21

>  <unitsOfMeasure>
%

>  <growth>
51.2

$$$$
>  <compound>
CC12CCC3C4(C)COC(c5ccco5)OC4CCC3(C)C1CC(C1=CCOC1=O)O2 (stereo unspecified)

>  <unitsOfMeasure>
%

>  <growth>
121

$$$$
